molecular target: Peroxisome proliferator-activated receptor delta (Homo sapiens) (UniProt Q03181); test: qHTS assay to identify small molecule antagonists of the peroxisome proliferator-activated receptor delta (PPARd) signaling pathway (AID 743215); conditions: HEK293H PPARd-UAS-bla, beta-lactamase FRET ratio, antagonist, 17 h; series mostly up to 62 µM;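 further: cells stimulated with agonist L165041 at 300 nM final during compound exposure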
Sequence (Q03181 whole entry, looked up): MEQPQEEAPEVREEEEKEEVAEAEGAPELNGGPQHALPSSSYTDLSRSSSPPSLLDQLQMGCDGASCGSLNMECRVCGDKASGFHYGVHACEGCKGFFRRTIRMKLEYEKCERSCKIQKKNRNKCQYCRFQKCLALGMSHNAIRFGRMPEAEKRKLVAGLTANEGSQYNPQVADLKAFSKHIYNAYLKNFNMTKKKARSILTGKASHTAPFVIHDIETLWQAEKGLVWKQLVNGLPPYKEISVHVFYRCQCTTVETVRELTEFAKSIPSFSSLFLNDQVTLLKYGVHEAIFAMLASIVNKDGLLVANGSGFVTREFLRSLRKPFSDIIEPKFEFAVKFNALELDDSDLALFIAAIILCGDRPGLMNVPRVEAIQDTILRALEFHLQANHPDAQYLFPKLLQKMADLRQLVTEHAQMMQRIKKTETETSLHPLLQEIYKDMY
Results filed as inconclusive are left out. Active and inactive are the calls of the source. The call rests on the fitted dose curve; in most records, active means well fitted inhibition curve with a large enough effect in the signal ratio in the repeat runs (not every such curve was filed as active); inconclusive means weak or mixed curves, or effect the other way; inactive means no such curve, though single readings can be large or run the other way; the % refers to the signal ratio.
Value type: ratio activity, negative = inhibition

{"columns": ["Molecule", "Endpoint value"],
 "data": [
  ["CC1=C2[C@@H]([C@H](C)CC[C@H]2/C=C(\\C)C(=O)O)[C@H](O)C1", "inactive"],
  ["CSCC[C@H](NC(=O)[C@H](Cc1c[nH]c2ccccc12)NC(=O)CCNC(=O)OC(C)(C)C)C(=O)N[C@@H](CC(=O)O)C(=O)N[C@@H](Cc1ccccc1)C(N)=O", "inactive"],
  ["O=CNNC=O", "inactive"],
  ["O=c1[nH]c2cc(C(F)(F)F)c(N3CCOCC3)cc2n(CP(=O)(O)O)c1=O", "inactive"],
  ["Cc1ccc2nc(N)[nH]c(=O)c2c1Sc1ccncc1", "inactive"]
]}

Provide the reported ratio activity, negative = inhibition of each entry below, same order.
1. CCC(CO)(CO)[N+](=O)[O-]
2. O=C(O)c1cc(Cl)cc(Cl)c1O
3. CCCCC(CC)COS(=O)(=O)O (centres undefined)

Solution:
inactive
inactive
inactive

Provide the reported ratio activity, negative = inhibition of each entry below, same order.
1. CCCCOCCOC(=O)c1cccnc1
2. CC1CCCC(=O)C1=O (centres undefined)
3. COc1ccc(C2C(=O)c3ccccc3C2=O)cc1
4. CCCCCCCC(=O)OCCCCCC

Solution:
1: inactive; 2: inactive; 3: inactive; 4: inactive

Provide the reported ratio activity, negative = inhibition of each entry below, same order.
1. Cc1ccc(Cl)cc1N
2. Cc1ccc2c(c1[N+](=O)[O-])C(=O)c1ccccc1C2=O

Solution:
1. inactive
2. inactive

* * *

assay: A CellTox Green Cytotoxicity Assay to monitor cytotoxicity in HepG2 cells - 0 hour (AID 1224882); conditions: CellTox Green fluorescence; series mostly up to 76.8 µM; further: nearly all actives have a fitted effect of over 35% in size
The source made the active and inactive calls. Calls come from the whole dose curve; as a rule, active = well fitted activation curve with a large enough effect in the repeat runs; inconclusive = weak or mixed curves; inactive = flat fitted curve, though single readings scatter.
Would you mind answering with one of these outcomes? active, inactive

Examples from the recorded data:
{"columns": ["Compound", "Qualitative label"],
 "data": [
  ["O=C(NS(=O)(=O)/C=C/c1ccccc1)c1ccc(F)cc1Cl", "inactive"],
  ["COc1ccc(C(=O)NCc2ccc(OCCN(C)C)cc2)cc1OC", "inactive"],
  ["CNc1c2c(nn1C)CCCC2", "inactive"],
  ["CC(C)C(O)C(C)(C)CO (centres undefined)", "inactive"],
  ["COc1ccc2nc(S(=O)Cc3ncc(C)c(OC)c3C)[nH]c2c1 (centres undefined)", "inactive"]
]}

Kindly consider the entry below.
Exercise: Each compound tested received a call. Report the one for O=C(c1ccccc1)C1CCC1 .
Solution: active

* * *

test: qHTS assay to identify small molecule agonists of the retinoic acid receptor (RAR) signaling pathway (AID 1159553); conditions: C3RL4 RARE luciferase reporter, agonist, 6 h; series mostly up to 73.3 µM
Inconclusive results are not listed. The source made the active and inactive calls. Calls come from the whole dose curve; as a rule, active = well fitted activation curve with a large enough effect in the repeat runs; inconclusive = weak or mixed curves, or effect the other way; inactive = no such curve, though single readings can be large or run the other way.
Would you mind answering with one of these outcomes? active, inactive

Examples from the recorded data:
{"columns": ["Compound", "Qualitative label"],
 "data": [
  ["Cc1ccc(NC(=O)N(C)C)cc1NC(=O)N(C)C", "inactive"],
  ["CC(C)(C)C(O)/C=C/c1ccc2c(c1)OCO2 (stereo not drawn)", "active"],
  ["CCOC(=O)c1c(N)sc2c1CCN(Cc1ccccc1)C2", "inactive"],
  ["CCN(CC)CCOC(=O)C(c1ccccc1)c1ccccc1", "inactive"],
  ["CCCCCC", "inactive"],
  ["CCCCCCCC/C=C\\CCCCCCCC(=O)OCCO", "inactive"]
]}

Exercise: Each compound tested received a call. Report the one for CC1C(C)(C)C2=C(C(=O)CCC2)C1(C)C (stereo not drawn) .
Solution: inactive

Exercise: Each compound tested received a call. Report the one for CCOCCC(=O)OCC .
Solution: inactive

Exercise: Each compound tested received a call. Report the one for CC(C)c1ccc(C#N)cc1 .
Solution: inactive

Exercise: Each compound tested received a call. Report the one for CCC1CCC(CCC(=O)O)C1 (stereo not drawn) .
Solution: inactive

Exercise: Each compound tested received a call. Report the one for CCC(Cl)CC(Cl)C(Cl)C(Cl)C(Cl)C(C)Cl (stereo not drawn) .
Solution: active

Exercise: Each compound tested received a call. Report the one for NC(=O)c1ccccc1[N+](=O)[O-] .
Solution: inactive

Exercise: Each compound tested received a call. Report the one for CCCOC(=O)c1c(Cl)c(Cl)c(Cl)c(Cl)c1C(=O)OCCC .
Solution: inactive

Exercise: Each compound tested received a call. Report the one for c1ccc(CNc2ncnc3c2ncn3C2CCCCO2)cc1 (stereo not drawn) .
Solution: active

Exercise: Each compound tested received a call. Report the one for CCCCCCCCCCCCCCCCCC(=O)OCC(CC)CCCC (stereo not drawn) .
Solution: inactive

* * *

assay: qHTS assay to identify small molecule agonists of the peroxisome proliferator-activated receptor delta (PPARd) signaling pathway - cell viability counter screen (AID 743211); details: PPARd-bla HEK293H viability, CellTiter-Glo luminescence, 17 h; series mostly up to 62.6 µM; further: nearly all actives have a fitted effect of over 55% in size
Inconclusive results are not listed. Active and inactive are the calls of the source. Calls come from the whole dose curve; as a rule, active = well fitted cell-killing curve with a large enough effect in the repeat runs; inconclusive = weak or mixed curves; inactive = no such curve, though single readings can be large or run the other way.
Would you mind answering with one of these outcomes? t = active, f = inactive

Examples from the recorded data:
{"columns": ["Molecule", "Qualitative label"],
 "data": [
  ["CC(C)(C)C(O)/C=C/c1ccc2c(c1)OCO2 (stereo unspecified)", "f"],
  ["C=Cc1ccc(OC(C)=O)cc1", "f"],
  ["CC(=O)c1ccc[nH]1", "f"],
  ["O=C(Nc1ccc(C(=O)O)c(O)c1)c1ccccc1", "f"]
]}

Exercise: Each molecule tested received a call. Report the one for CC(C)CC(O)CC(C)C .
Solution: f

Exercise: Each molecule tested received a call. Report the one for CN1C(CSCC(F)(F)F)Nc2cc(Cl)c(S(N)(=O)=O)cc2S1(=O)=O (stereo unspecified) .
Solution: f

Exercise: Each molecule tested received a call. Report the one for CC(C)C(O)C(C)(C)CO (stereo unspecified) .
Solution: f

Exercise: Each molecule tested received a call. Report the one for O=C(O)CCC(=O)OC[C@@H](NC(=O)C(Cl)Cl)[C@H](O)c1ccc([N+](=O)[O-])cc1 .
Solution: f

Exercise: Each molecule tested received a call. Report the one for CCC(CO)(CO)[N+](=O)[O-] .
Solution: f

Exercise: Each molecule tested received a call. Report the one for Nc1nc2ccc(OC(F)(F)F)cc2s1 .
Solution: f

Exercise: Each molecule tested received a call. Report the one for CSCC[C@H](NC(=O)[C@H](Cc1c[nH]c2ccccc12)NC(=O)CCNC(=O)OC(C)(C)C)C(=O)N[C@@H](CC(=O)O)C(=O)N[C@@H](Cc1ccccc1)C(N)=O .
Solution: f

Exercise: Each molecule tested received a call. Report the one for COc1ccc(CCN(C)CCCN2CCc3cc(OC)c(OC)cc3CC2=O)cc1OC .
Solution: f

* * *

molecular target: Cytochrome P450 2D6 (Homo sapiens); experiment: Cytochrome P450 Family 2 Subfamily D Member 6 (CYP2D6) small molecule antagonists: luciferase reporter qHTS assay (AID 1671196); conditions: P450-Glo CYP2D6 enzyme assay, luciferin luminescence, 1 h; series mostly up to 115 µM; further: nearly all actives have a fitted effect of over 50% in size; further: potency means the concentration at half of the fitted maximal effect
Results filed as inconclusive are left out. The source made the active and inactive calls. Calls come from the whole dose curve; as a rule, active = well fitted inhibition curve with a large enough effect in the repeat runs; inconclusive = weak or mixed curves; inactive = no such curve, though single readings can be large or run the other way.
Value type: Potency

{"columns": ["Compound", "Tested system", "Potency"],
 "data": [
  ["CNS(=O)(=O)c1cc(C(=O)N2CCC(CCN3C4CCC3CC(n3c(C)nc5ccccc53)C4)(c3cccc(F)c3)CC2)c(Cl)cc1F (stereo unspecified)", "Cytochrome P450 2D6 (Homo sapiens)", "25.2 µM (active)"],
  ["CCC(=O)OCc1ccc(OC)cc1", "Cytochrome P450 2D6 (Homo sapiens)", "inactive"],
  ["Cc1c[nH]c2ccccc12", "Cytochrome P450 2D6 (Homo sapiens)", "inactive"],
  ["CN=C(N)NC(=O)Nc1c(C)cccc1C", "Cytochrome P450 2D6 (Homo sapiens)", "inactive"],
  ["Cc1cccc(C)c1NC(=O)c1cc(S(N)(=O)=O)c(Cl)cc1O", "Cytochrome P450 2D6 (Homo sapiens)", "inactive"],
  ["CC(C)(C)CCCCCCOC(=O)c1ccccc1C(=O)OCCCCCCC(C)(C)C", "Cytochrome P450 2D6 (Homo sapiens)", "inactive"]
]}

Provide the reported Potency of each entry below, same order.
1. O=c1[nH]c2cc(C(F)(F)F)c(N3CCOCC3)cc2n(CP(=O)(O)O)c1=O
2. CCCCCCCC(=O)OCCCCCC

Solution:
["inactive", "inactive"]

* * *

test: qHTS assay for small molecule agonists of the antioxidant response element (ARE) signaling pathway (AID 743202); details: HepG2 ARE-bla reporter, beta-lactamase FRET, 16 h; series mostly up to 73.3 µM
Records with an inconclusive call do not appear. Calls of active or inactive are those of the source. Calls follow the shape of the dose curve; as a rule, active = well fitted activation curve with a large enough effect in the signal ratio in the repeat runs (not every such curve was filed as active); inconclusive = weak or mixed curves, or effect the other way; inactive = no such curve, though single readings can be large or run the other way; the % refers to the signal ratio.
Value type: outcome

{"columns": ["Compound", "outcome"],
 "data": [
  ["O=S(=O)(O)CO", "inactive"],
  ["O=C(/C=C/c1ccc([N+](=O)[O-])cc1)c1ccccc1", "inactive"],
  ["CCCCCCCCCCCC(=O)OCC(O)CO (centres undefined)", "inactive"],
  ["O=C(Nc1ccc(C(=O)O)c(O)c1)c1ccccc1", "inactive"],
  ["CC(C)N=C=NC(C)C", "inactive"],
  ["O=C1CC[C@@H](C(=O)O)N1", "inactive"],
  ["COC(C)(C)OC", "inactive"],
  ["CC(C)(C)C1(CCc2ccc(Cl)cc2)CO1 (centres undefined)", "inactive"]
]}

Provide the reported outcome of each entry below, same order.
1. Cc1ccc(S(=O)(=O)NC(=O)NC2CCCCC2)cc1
2. O=c1[nH]c2cc(C(F)(F)F)c(N3CCOCC3)cc2n(CP(=O)(O)O)c1=O
3. COc1ccc(C2C(=O)c3ccccc3C2=O)cc1
4. O=CNNC=O
5. CCCCCCCCCCCCCOC(=O)CCSCCC(=O)OCCCCCCCCCCCCC
6. Cc1cn([C@H]2C[C@H](F)[C@@H](CO)O2)c(=O)[nH]c1=O

Solution:
1. inactive
2. inactive
3. inactive
4. inactive
5. inactive
6. inactive
